All values here come from PubChem BioAssay AID248.

Parameter T/C: see the listing below.
- System: L1210 leukemia ip in BDF1 mice, survival T/C
- PROCEDURE_DETAILS: NCI In Vivo Anticancer Drug Screen. Data for tumor model L1210 Leukemia (intraperitoneal) in B6D2F1 (BDF1) mice
- COND: endpoint: mean survival time; dose: 300.0 mg/kg/injection; schedule: Q01DX001 (ip); vehicle: saline; higher = longer survival
Inconclusive results and toxic doses are left out.

Reference set, count: 3
CCCCC1C(=O)N2c3ccccc3-c3ccccc3N2C1=O	101 % of control
CCSCCCCO	97 % of control
NC(CSc1ccc([N+](=O)[O-])cc1Cl)C(=O)O (configuration not stated)	92 % of control

Field: next compound
[Q] Need T/C of CN(C)CCC(CCC(=O)O)(C(=O)O)c1ccccc1 (configuration not stated) , thanks.
[A] 90 % of control
